Reported log10(IC50) is given for each of the following compounds.
tested on: RS4;11 (BCL-2 dependent acute lymphoblastic leukemia cell line); assay: RS4;11 Cell Proliferation Assay; assay type: cell-based; details: Homo sapiens, RS4-11, RS4;11 cells, read-out: Cellular proliferation assay (IC50, nM) RS4
Note the log scale: values are log10 of IC50 expressed in nM.

compound	log10(IC50)
COc1ccc(CN2CCN(C3CC4(CCN(c5ccc(C(=O)NS(=O)(=O)c6ccc(NC[C@H]7CC[C@](C)(O)CC7)c([N+](=O)[O-])c6)c(Oc6cnc7[nH]cc(Cl)c7c6)c5)CC4)C3)[C@H](c3ccccc3C(C)C)C2)cc1OC [Example 174]	-0.74
CC(C)c1ccccc1C1CN(Cc2cccc3c2OCCCO3)CCN1C1CC2(CCN(c3ccc(C(=O)NS(=O)(=O)c4ccc(NC[C@H]5CC[C@](C)(O)CC5)c([N+](=O)[O-])c4)c(Oc4cnc5[nH]ccc5c4)c3)CC2)C1 (stereo partly shown) [Example 107]	-0.48

[ask] May I ask what log10(IC50) has been recorded for [2H]C([2H])([2H])Oc1cc(CN2CCN(C3CC4(C3)CN(c3ccc(C(=O)NS(=O)(=O)c5ccc(NC[C@H]6CC[C@](C)(O)CC6)c([N+](=O)[O-])c5)c(Oc5cnc6[nH]ccc6c5)c3)C4)[C@H](c3ccccc3C(C)C)C2)cc2ccoc12 [Example 323] ?
[reply] -0.68

[ask] Given the entry CC(C)c1ccccc1[C@@H]1CN(C2CC2)CCN1C1CC2(CCN(c3ccc(C(=O)NS(=O)(=O)c4ccc(NC[C@H]5CC[C@](C)(O)CC5)c([N+](=O)[O-])c4)c(Oc4cnc5[nH]ccc5c4)c3)CC2)C1 (single isomer, unassigned) [Example 4] , report its measured log10(IC50).
[reply] -0.06
